Collected pIC50 values appear next to each entry.
# System: human lung cancer strain NCI-H441;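 note: cell proliferation inhibition after four days measured by CellTiter-Glo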
Scale for pIC50: -log10 of concentration given in mol/L; no unit attached.

CCO[C@@H]1C[C@H]2C(=O)NC3(CCC3)C(=O)N(C)[C@@H](C3CCCC3)C(=O)N(C)[C@H](C(=O)N3CCOCC3)CC(=O)N(C)[C@@H](CC3CC3)C(=O)N[C@@H]([C@@H](C)CC)C(=O)N(C)CC(=O)N(C)[C@H]3C/C=C\CCN(C3=O)[C@@H](Cc3ccc(C)cc3)C(=O)N(C)CC(=O)N[C@@H](CCc3cc(F)c(C(F)(F)F)c(F)c3)C(=O)N2C1: 7.42
CCO[C@@H]1C[C@H]2C(=O)NC3(CCCC3)C(=O)N(C)[C@@H](C(CC)CC)C(=O)N(C)[C@H](C(=O)N3CCCC3)CC(=O)N(C)[C@@H](C)C(=O)N[C@@H]([C@@H](C)CC)C(=O)N(C)CC(=O)N(C)[C@H]3C/C=C\CCN(C3=O)[C@@H](CC3CCC(F)(F)CC3)C(=O)N(C)CC(=O)N[C@@H](CCc3cc(F)c(C(F)(F)F)c(F)c3)C(=O)N2C1: 6.66
CCC[C@H]1C(=O)N[C@@H]([C@@H](C)CC)C(=O)N(C)CC(=O)N(C)[C@H]2C/C=C\CCN(C2=O)[C@@H](CC2CCC(F)(F)CC2)C(=O)N(C)CC(=O)N[C@@H](CCc2ccc(C(F)(F)F)c(OC)c2)C(=O)N2C[C@@H](C)C[C@H]2C(=O)N(C)C2(CCC2)C(=O)N(C)[C@@H](C2CCCC2)C(=O)N(C)[C@H](C(=O)N(C)C)CC(=O)N1C: 8.32
C=CC[C@H]1C(=O)N[C@@H]([C@@H](C)CC)C(=O)N(C)CC(=O)N(C)[C@H]2C/C=C\CCN(C2=O)[C@@H](CC2CCC(F)(F)CC2)C(=O)N(C)CC(=O)N[C@@H](CCc2cc(F)c(C(F)(F)F)c(F)c2)C(=O)N2C[C@H](OCC)C[C@H]2C(=O)NC2(CCC2)C(=O)N(C)[C@@H](C2CCCC2)C(=O)N(C)[C@H](C(=O)N(C)C)CC(=O)N1C: 7.82
CCO[C@@H]1C[C@H]2C(=O)NC3(CC(C)(C)C3)C(=O)N(C)[C@@H](C(CC)CC)C(=O)N(C)[C@H](C(=O)N(C)C)CC(=O)N(C)[C@@H](CC3CC3)C(=O)N[C@@H]([C@@H](C)CC)C(=O)N(C)CC(=O)N(C)[C@H]3C/C=C\CCN(C3=O)[C@@H](CC3CCC(F)(F)CC3)C(=O)N(C)CC(=O)N[C@@H](CCc3cc(F)c(C(F)(F)F)c(F)c3)C(=O)N2C1: 7.26
CCO[C@@H]1C[C@H]2C(=O)N(C)C3(CC(C)(C)C3)C(=O)N(C)[C@@H](C3CCCC3)C(=O)N(C)[C@H](C(=O)N(C)C)CC(=O)N(C)[C@H]3CCC/C=C/c4ccc(cc4)C[C@@H](C(=O)N(C)CC(=O)N[C@@H](CCc4ccc(Cl)c(Cl)c4)C(=O)N2C1)N1CC/C=C\C[C@@H](C1=O)N(C)C(=O)CN(C)C(=O)[C@H]([C@@H](C)CC)NC3=O: 8.68

INPUT: # get_value(readout='pIC50', item= CC[C@H](C)[C@@H]1NC(=O)[C@H](CC)N(C)C(=O)C[C@@H](C(=O)N(C)C)N(C)C(=O)[C@H](C2CCCC2)N(C)C(=O)C2(CCC2)NC(=O)[C@@H]2CCCN2C(=O)[C@H](CCc2cc(F)c(C(F)(F)F)c(F)c2)NC(=O)CN(C)C(=O)[C@H](CC2CCC(F)(F)CC2)N2CC/C=C\C[C@@H](C2=O)N(C)C(=O)CN(C)C1=O )
OUTPUT: 6.92

INPUT: Same question, CCO[C@@H]1C[C@H]2C(=O)NC3(CCC3)C(=O)N(C)[C@@H](C3CCCC3)C(=O)N(C)[C@H](C(=O)N(C)C)CC(=O)N(C)[C@@H](Cc3ccc(C#N)cc3)C(=O)N[C@@H]([C@@H](C)CC)C(=O)N(C)CC(=O)N(C)[C@H]3CCCCCN(C3=O)[C@@H](Cc3ccc(F)cc3)C(=O)N(C)CC(=O)N[C@@H](CCc3cc(F)c(C(F)(F)F)c(F)c3)C(=O)N2C1 this time
OUTPUT: 7.52

INPUT: Same question, CC[C@H](C)[C@@H]1NC(=O)[C@H](CC2CC2)N(C)C(=O)C[C@@H](C(=O)N(C)C)N(C)C(=O)[C@H](C2CCCC2)N(C)C(=O)C2(CCC2)NC(=O)[C@H](CCC(F)F)N(C)C(=O)[C@H](CCc2cc(F)c(C(F)(F)F)c(F)c2)NC(=O)CN(C)C(=O)[C@H](Cc2ccc(C(F)(F)F)cc2)N2CC/C=C\C[C@@H](C2=O)N(C)C(=O)CN(C)C1=O this time
OUTPUT: 7.09

INPUT: Same question, CCCCCC[C@H]1C(=O)N[C@@H]([C@@H](C)CC)C(=O)N(C)CC(=O)N(C)[C@H]2C/C=C\CCN(C2=O)[C@@H](Cc2ccc(C(F)(F)F)cc2)C(=O)N(C)CC(=O)N[C@@H](CCc2ccc3sccc3c2)C(=O)N2C[C@H](OCC)C[C@H]2C(=O)NC2(CCC2)C(=O)N(C)[C@@H](C(CC)CC)C(=O)N(C)[C@H](C(=O)N(C)C)CC(=O)N1C this time
OUTPUT: 6.98

# credit: patent US20240158446A1
